system: Vero cells; settings: African green monkey
Where a name gives a salt, the structure may show the parent alone.
So basically: is PrestoBlue relative viability under 1? Then class 1. Not under? Then class 0.

molecule | discrete.label
Clc1ccc(C(Cn2ccnc2)OCc2ccsc2Cl)c(Cl)c1 (centres unmarked) | class 0
COc1cccc2c1C(=O)c1c(O)c3c(c(O)c1C2=O)C[C@@](O)(C(=O)CO)C[C@@H]3O[C@H]1C[C@H](N)[C@@H](O)[C@H](C)O1 [Epirubicin HCl] | class 1
CCc1ccc(CCOc2ccc(CC3SC(=O)NC3=O)cc2)nc1 (centres unmarked) [Pioglitazone HCl] | class 0

Find out if reported PrestoBlue relative viability for OCCOc1ccc(/C(=C(/CCCl)c2ccccc2)c2ccccc2)cc1 is less than 1 class 1

====

# PrestoBlue relative viability per entry
system: HUH7 cells; conditions: HUH7 screen
Where a name gives a salt, the structure may show the parent alone.
Give the value as a plain number.

compound | data.value
CN(C)CC/C=C1/c2ccccc2Sc2ccc(Cl)cc21.Cl [Chlorprothixene (hydrochloride)] | 0.7623
C=C1CC[C@H](O)C/C1=C/C=C1\CCC[C@]2(C)[C@@H]([C@H](C)CCCC(C)C)CC[C@@H]12 | 0.6418
O=C(/C=C\n1cnc(-c2cc(C(F)(F)F)cc(C(F)(F)F)c2)n1)NNc1cnccn1 | 0.7102
CCN1CCN(Cc2ccc(Nc3ncc(F)c(-c4cc(F)c5nc(C)n(C(C)C)c5c4)n3)nc2)CC1 | 0.6043
CC(C)n1c(/C=C/C(O)CC(O)CC(=O)O)c(-c2ccc(F)cc2)c2ccccc21 (centres unmarked) [Fluvastatin Sodium] | 1.3017

Fill in: PrestoBlue relative viability of CCCCc1oc2ccccc2c1C(=O)c1cc(I)c(OCCN(CC)CC)c(I)c1 [Amiodarone HCl] is ___ 0.9633

Data request, read-out PrestoBlue relative viability, for CCOC(=O)C1=C(COCCN)NC(C)=C(C(=O)OC)C1c1ccccc1Cl (centres unmarked) [Amlodipine Besylate] 0.6859

Item COCCOC(=O)C1=C(C)NC(C)=C(C(=O)OC/C=C/c2ccccc2)C1c1cccc([N+](=O)[O-])c1 (centres unmarked) has what recorded PrestoBlue relative viability? 0.797

====

test system: SARS-CoV-2-ΔOrf7a-NLuc virus; assay: Post-infection treatment: Vero cells infected 24 hrs with SARS-CoV-2-ΔOrf7a-NLuc, then compound for 48 hrs, bioluminescence; format: cell-based; settings: change in replication relative to DMSO; cells infected 24 hrs, then treated 48 hrs
Where a name gives a salt, the structure may show the parent alone.
quantity.name: Post-infection at IC50 (%)
Just the number please, in %, no unit attached.

compound | reading.unit | data.value
Cc1[nH]c2ccccc2c1CCNCc1ccc(/C=C/C(=O)NO)cc1 [Panobinostat] | % | -25
COC(=O)C1=C(C)NC(C)=C(C(=O)OCCN2CCN(C(c3ccccc3)c3ccccc3)CC2)C1c1cccc([N+](=O)[O-])c1.Cl.Cl (centres unmarked) [Manidipine 2HCl] | % | -50
C=C1CC[C@H](O)C/C1=C/C=C1\CCC[C@]2(C)[C@@H]([C@H](C)CCCC(C)C)CC[C@@H]12 [Vitamin D3] | % | -30
COc1nc2ccc(Br)cc2cc1[C@@H](c1ccccc1)[C@@](O)(CCN(C)C)c1cccc2ccccc12 [Bedaquiline] | % | -30
COC(=O)C1=C(C)NC(C)=C(C(=O)OCCN2CCN(C(c3ccccc3)c3ccccc3)CC2)C1c1cccc([N+](=O)[O-])c1 (centres unmarked) [Manidipine] | % | -50
CCN(CC)Cc1cc(Nc2ccnc3cc(Cl)ccc23)ccc1O [Amodiaquine, Amodiaquine dihydrochloride dihydrate] | % | -25
O=C1C(O)=C([C@H]2CC[C@H](c3ccc(Cl)cc3)CC2)C(=O)c2ccccc21 [Atovaquone] | % | -25

Turning to the following compound.
So what does the record say about Post-infection at IC50 for CCN1CCN(Cc2ccc(Nc3ncc(F)c(-c4cc(F)c5nc(C)n(C(C)C)c5c4)n3)nc2)CC1 [LY2835219] ? -40

====

system: SARS-CoV-2-ΔOrf7a-NLuc virus; assay: microbe, parasite or virus in culture; type: cell-based; conditions: Severe acute respiratory syndrome coronavirus 2; Vero cells
Structures can show the parent of a compound that is named as a salt.
// reported pIC50 per item
The quantity pIC50 is defined as the negative base-10 logarithm of the molar concentration.

compound | data.value
C=C1CC[C@H](O)C/C1=C/C=C1\CCC[C@]2(C)[C@@H]([C@H](C)CCCC(C)C)CC[C@@H]12 | 5.00
COC(=O)C1=C(C)NC(C)=C(C(=O)OCCN2CCN(C(c3ccccc3)c3ccccc3)CC2)C1c1cccc([N+](=O)[O-])c1 (stereo not shown) | 5.12
COc1nc2ccc(Br)cc2cc1[C@@H](c1ccccc1)[C@@](O)(CCN(C)C)c1cccc2ccccc12 | 5.00
CCN(CC)Cc1cc(Nc2ccnc3cc(Cl)ccc23)ccc1O [Amodiaquine, Amodiaquine dihydrochloride dihydrate] | 5.30

Item O=C1C(O)=C([C@H]2CC[C@H](c3ccc(Cl)cc3)CC2)C(=O)c2ccccc21 has what recorded pIC50? 5.52

Please give the measured pIC50 for this compound: CCN1CCN(Cc2ccc(Nc3ncc(F)c(-c4cc(F)c5nc(C)n(C(C)C)c5c4)n3)nc2)CC1 6.00

====

test system: recombinant NLuc; format: biochemical; conditions: recombinant NLuc, first read column
Counter-ions that a name gives are not always drawn.
Measured Reads Counts per second (read 1) values are reported for all entries that follow.
Field: numeric (Counts per second). Do not append units.

See these solved cases before continuing.
compound | assayed.target | quantity.name | data.value
COc1cc2nccc(Oc3ccc(NC(=O)C4(C(=O)Nc5ccc(F)cc5)CC4)cc3)c2cc1OC [Cabozantinib malate (XL184), Cabozantinib malate] | recombinant NLuc | Reads Counts per second (read 1) | 333265
NCCC(O)(P(=O)([O-])O)P(=O)([O-])O.[Na+].[Na+] [Pamidronate Disodium] | recombinant NLuc | Reads Counts per second (read 1) | 309519
COc1cccc2c1C(=O)c1c(O)c3c(c(O)c1C2=O)C[C@@](O)(C(C)=O)C[C@@H]3O[C@H]1C[C@H](N)[C@H](O)[C@H](C)O1 [Daunorubicin HCl] | recombinant NLuc | Reads Counts per second (read 1) | 319222
CCOC(=O)C1=C(C)NC(C)=C(C(=O)OCC)C1c1ccccc1/C=C/C(=O)OC(C)(C)C | recombinant NLuc | Reads Counts per second (read 1) | 61246

Which Reads Counts per second (read 1) is reported for this compound? Cl.Cl.Cl.O[C@@H](COc1cccc2ncccc12)CN1CCN([C@@H]2c3ccccc3[C@@H]3[C@H](c4ccccc42)C3(F)F)CC1 [LY335979 (Zosuquidar 3HCL), Zosuquidar 3HCL] 352212

Query: Reads Counts per second (read 1); subject: CCOC(=O)C1=C(C)NC(C)=C(C(=O)OC)C1c1cccc([N+](=O)[O-])c1 (stereo not drawn) 26271

====

test system: Vero cells; conditions: Vero screen
Counter-ions that a name gives are not always drawn.
Measured PrestoBlue relative viability values are reported for all entries that follow.

# count of solved cases: 5
molecule | data.value
COC(=O)C1=C(C)NC(C)=C(C(=O)OC(C)C)C1c1cccc2nonc12 (stereo not shown) | 0.6155
O=C(/C=C\n1cnc(-c2cc(C(F)(F)F)cc(C(F)(F)F)c2)n1)NNc1cnccn1 | 0.581
Cc1[nH]c2ccccc2c1CCNCc1ccc(/C=C/C(=O)NO)cc1 | 0.6021
Cc1cc(C2CCCCC2)n(O)c(=O)c1.NCCO | 0.5173
CCN1CCN(Cc2ccc(Nc3ncc(F)c(-c4cc(F)c5nc(C)n(C(C)C)c5c4)n3)nc2)CC1 | 0.5512

// query PrestoBlue relative viability value for entry CCc1cnn2c(NCc3ccc[n+]([O-])c3)cc(N3CCCC[C@H]3CCO)nc12 [Dinaciclib (SCH727965), Dinaciclib] 0.664

Look at this molecule and give its reported PrestoBlue relative viability. Cc1ccc(NC(=O)c2ccc(CN3CCN(C)CC3)cc2)cc1Nc1nc(-c2cccnc2)cs1 1.308

Entry under review: COc1cccc2c1C(=O)c1c(O)c3c(c(O)c1C2=O)C[C@@](O)(C(C)=O)C[C@@H]3O[C@H]1C[C@H](N)[C@H](O)[C@H](C)O1 [Daunorubicin HCl] . Reported PrestoBlue relative viability? 0.6965

# lookup: PrestoBlue relative viability of CCOC(=O)C1=C(COCCN)NC(C)=C(C(=O)OC)C1c1ccccc1Cl (stereo not shown) [Amlodipine Besylate] 1.385

Would you kindly share the measured PrestoBlue relative viability for CCOC(=O)C1=C(C)NC(C)=C(C(=O)OC)C1c1cccc([N+](=O)[O-])c1 (stereo not shown) ? 0.8649

Name the recorded PrestoBlue relative viability for COC(=O)C[C@](O)(CCCC(C)(C)O)C(=O)O[C@@H]1C(OC)=C[C@]23CCCN2CCc2cc4c(cc2[C@H]13)OCO4 . 0.5068

I'd like to know its PrestoBlue relative viability. The molecule in question is C=C1CC[C@H](O)C/C1=C/C=C1\CCC[C@]2(C)[C@@H]([C@H](C)CCCC(C)C)CC[C@@H]12 1.049

Any idea what PrestoBlue relative viability was measured for Cl.Cl.Fc1ccc(C(c2ccc(F)cc2)N2CCN(C/C=C/c3ccccc3)CC2)cc1 [Flunarizine 2HCl] ? 2.629

Which PrestoBlue relative viability reading was recorded for the molecule CCOC(=O)C1=C(C)NC(C)=C(C(=O)OCC)C1c1ccccc1/C=C/C(=O)OC(C)(C)C ? 0.86

The origin of these recorded values is paper PMC8428568.
